ASSAY EXPLANATION: Intrinsic clearance in human liver microsomes
Type: ADME
EXPERIMENTAL PARAMETERS: read-out: CLH
Listed below: microsomal CLint values for each entry.
EXPERIMENTAL ENDPOINT: microsomal CLint (µL/min/mg)

>>> df
                                chem_smiles  experimental_endpoint  unit_annotation  test_result
0  O=C([C@@H]1COC(c2nc3cc(C(F)(F)F)cc([N+](=O)[O-])c3s2)=N1)N1CCCC1       microsomal CLint        µL/min/mg          5.3
1  Cc1c(C(F)(F)F)cc2nc(C3=N[C@H](C(=O)N4CCCC4)CO3)sc2c1[N+](=O)[O-]       microsomal CLint        µL/min/mg          9.6

* * *

Listed below: fraction unbound values for each entry.
ASSAY EXPLANATION: Fraction unbound in mouse plasma protein
Assay type: ADME, cell-free
EXPERIMENTAL ENDPOINT: fraction unbound

                                chem_smiles  experimental_endpoint  test_result
0  COCCN1CCN(C(=O)c2nc3cc(C(F)(F)F)c(C)c([N+](=O)[O-])c3s2)CC1       fraction unbound        0.043
1  O=C([C@@H]1COC(c2nc3cc(C(F)(F)F)cc([N+](=O)[O-])c3s2)=N1)N1CCCC1       fraction unbound         0.06
2  COCCN1CCN(C(=O)c2nc3cc(C(F)(F)F)cc([N+](=O)[O-])c3s2)CC1       fraction unbound        0.061
3  Cc1c(C(F)(F)F)cc2nc(C3=N[C@H](C(=O)N4CCCC4)CO3)sc2c1[N+](=O)[O-]       fraction unbound        0.063
4  O=C(c1sc2c([N+](=O)[O-])cc(C(F)(F)F)cc2[n+]1[O-])N1CCCCC1       fraction unbound        0.103

* * *

Tested on: Salmonella typhimurium
ASSAY EXPLANATION: Genotoxicity in Salmonella typhimurium TA100 at 50 ug/plate by Ames test in absence of S9 fraction
Format: toxicity, organism-based
EXPERIMENTAL PARAMETERS: salmonella enterica subsp. enterica serovar typhimurium
EXPERIMENTAL ENDPOINT: Activity

>>> df
                                chem_smiles            study_system  test_result
0  COCCN1CCN(C(=O)c2sc3c([N+](=O)[O-])cc(C(F)(F)F)cc3[n+]2[O-])CC1  Salmonella typhimurium        Toxic
1  O=C(c1nc2cc(C(F)(F)F)cc([N+](=O)[O-])c2s1)N1CCCCC1  Salmonella typhimurium        Toxic
2  O=[N+]([O-])c1cc(C(F)(F)F)cc2c1sc(C1=NCCO1)[n+]2[O-]  Salmonella typhimurium        Toxic
3  O=C(c1sc2c([N+](=O)[O-])cc(C(F)(F)F)cc2[n+]1[O-])N1CCCCC1  Salmonella typhimurium        Toxic
4  COCCN1CCN(C(=O)c2nc3cc(C(F)(F)F)cc([N+](=O)[O-])c3s2)CC1  Salmonella typhimurium        Toxic

* * *

System: Mycobacterium tuberculosis
ASSAY EXPLANATION: Antimycobacterial activity against Mycobacterium tuberculosis H37Rv ATCC 27294 after 5 days by microdilution method
Format: functional
EXPERIMENTAL PARAMETERS: H37Rv ATCC 27294, 120 h
Listed below: MIC values for each entry.
EXPERIMENTAL ENDPOINT: MIC (µg/mL)

In [3]: df
Out[3]:
                                 chem_smiles  experimental_endpoint  relation_qualifier  test_result
 0  O=C(c1nc2cc(C(F)(F)F)cc(B(O)O)c2s1)N1CCCCC1                    MIC                   >           32
 1    O=C(NCc1ccccn1)c1nc2cc(C(F)(F)F)ccc2s1                    MIC                   >           32
 2  Cc1c(C(F)(F)F)cc2nc(C(=O)N3CCCCC3)sc2c1[N+](=O)[O-]                    MIC                   =         0.25
 3  Cc1c(C(F)(F)F)cc2nc(C(=O)NCc3ccccn3)sc2c1[N+](=O)[O-]                    MIC                   =          0.3
 4  O=C(O)c1cc(C(F)(F)F)cc2nc(C(=O)N3CCCCC3)sc12                    MIC                   >           32
 5  Cc1c(C(F)(F)F)cc2nc(C3=NCCO3)sc2c1[N+](=O)[O-]                    MIC                   =            8
 6  O=[N+]([O-])c1cc(C(F)(F)F)cc2c1sc(C1=NCCO1)[n+]2[O-]                    MIC                   =          0.4
 7  O=[N+]([O-])c1cc(C(F)(F)F)cc2nc(C3=NCCO3)sc12                    MIC                   =            1
 8  COCCN1CCN(C(=O)c2sc3c([N+](=O)[O-])cc(C(F)(F)F)cc3[n+]2[O-])CC1                    MIC                   =         0.03
 9  COCCN1CCN(C(=O)c2nc3cc(C(F)(F)F)c(C)c([N+](=O)[O-])c3s2)CC1                    MIC                   =            2
10  Cc1c(C(F)(F)F)cc2nc(C(=O)N[C@@H](CCO)C(=O)N3CCCCC3)sc2c1[N+](=O)[O-]                    MIC                   =          0.7
11  O=C([C@@H]1COC(c2nc3cc(C(F)(F)F)cc([N+](=O)[O-])c3s2)=N1)N1CCCC1                    MIC                   =          1.4
12  COCCN1CCN(C(=O)c2nc3cc(C(F)(F)F)cc([N+](=O)[O-])c3s2)CC1                    MIC                   =         0.21
13  N#Cc1cc(C(F)(F)F)cc2nc(C(=O)N3CCCCC3)sc12                    MIC                   >           32
14  O=C(c1nc2cc(C(F)(F)F)cc(-[n+]3cc([O-])on3)c2s1)N1CCCCC1                    MIC                   =           32
15  O=C(c1nc2cc(C(F)(F)F)cc([N+](=O)[O-])c2s1)N1CCCCC1                    MIC                   =          0.7
16  O=C(NCc1ccccn1)c1sc2c([N+](=O)[O-])cc(C(F)(F)F)cc2[n+]1[O-]                    MIC                   =         0.02
17  CNC(=O)c1cc([N+](=O)[O-])c2sc(C(=O)N3CCCCC3)nc2c1                    MIC                   =           32
18  O=C(NCc1cccnc1)c1sc2c([N+](=O)[O-])cc(C(F)(F)F)cc2[n+]1[O-]                    MIC                   =         0.03
19  O=C(c1sc2c([N+](=O)[O-])cc(C(F)(F)F)cc2[n+]1[O-])N1CCCCC1                    MIC                   =         0.03

* * *

ASSAY EXPLANATION: Oral bioavailability in mouse
Format: ADME, organism-based
EXPERIMENTAL PARAMETERS: in vivo
EXPERIMENTAL ENDPOINT: bioavailability

>>> print(df.to_string())
                                chem_smiles  test_result
0  Cc1c(C(F)(F)F)cc2nc(C3=N[C@H](C(=O)N4CCCC4)CO3)sc2c1[N+](=O)[O-]        22.5%
1  O=C([C@@H]1COC(c2nc3cc(C(F)(F)F)cc([N+](=O)[O-])c3s2)=N1)N1CCCC1          27%

Cited source: ChEMBL document CHEMBL3739380
